Kindly supply the reported pIC50 values for the records listed here.
Target: KRAS G12S (Homo sapiens, UniProt P01116+P62937, G12S)
Sequence (P01116 1-169 isoform P01116-2 G12S limits assumed): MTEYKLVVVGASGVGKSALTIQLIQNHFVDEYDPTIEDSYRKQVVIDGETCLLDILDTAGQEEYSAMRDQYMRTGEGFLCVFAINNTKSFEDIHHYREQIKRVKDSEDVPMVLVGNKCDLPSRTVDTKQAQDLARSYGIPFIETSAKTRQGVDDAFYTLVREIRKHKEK
Sequence (P62937 whole entry): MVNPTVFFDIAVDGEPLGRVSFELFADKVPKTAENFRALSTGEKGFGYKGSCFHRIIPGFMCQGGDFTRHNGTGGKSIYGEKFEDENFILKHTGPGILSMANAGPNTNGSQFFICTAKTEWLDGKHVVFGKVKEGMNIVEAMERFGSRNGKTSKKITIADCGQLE
Assay: Ras-Raf disruption/FRET/MOA assay, KRAS G12S
Type: biochemical
Conditions: disruption of BRAF RBD binding, with Cyclophilin A; read-out: KRAS G12S FRET IC50
pIC50: −log10 of the molar value.

Some entries whose results are on file:
compound | observed-result
CCn1c(-c2cnccc2COC)c2c3cc(ccc31)-c1cc(O)cc(c1)C[C@H](NC(=O)[C@@H](CNC1=NCCO1)C(C)C)C(=O)N1CCC[C@H](N1)C(=O)OCC(C)(C)C2 | 5.00 to 6.00
CCn1c(-c2cccnc2[C@H](C)OC)c2c3cc(ccc31)-c1cc(O)cc(c1)C[C@H](NC(=O)[C@H](C(C)C)N1CO[C@@]3(CCN(C(=O)[C@H]4CN4)C3)C1=O)C(=O)N1CCC[C@H](N1)C(=O)OCC(C)(C)C2 | 6.00 to 7.00
CCn1c(-c2cccnc2[C@H](C)OC)c2c3cc(ccc31)-c1cc(O)cc(c1)C[C@H](NC(=O)[C@H](C(C)C)N1CC[C@]3(CCCN(C(=O)[C@H]4CN4)C3)C1=O)C(=O)N1CCC[C@H](N1)C(=O)OCC(C)(C)C2 | 7.00 to 8.00

# input Provide value of pIC50 for this record tested with KRAS G12S (Homo sapiens, UniProt P01116+P62937, G12S): CCn1c(-c2cccnc2[C@H](C)OC)c2c3cc(ccc31)-c1csc(n1)C[C@H](NC(=O)[C@H](C(C)C)N(C)C(=O)N1CCC[C@@H](N(C)C(=O)[C@@H]3CN3)C1)C(=O)N1CCC[C@H](N1)C(=O)OCC(C)(C)C2 (atropisomer, axis not shown)
# output 6.00 to 7.00
